Exercise: state measured pKd for each of the binders provided.
- ASSAYED_TARGET: T1, human CD3e/g antigen (ACRO, catalog number CDG-H52W5) (human, UniProt P07766 23-126; P09693 23-116)
- T1 construct: Bought reagent used as the Biacore analyte; also called hCD3e/g
- TEST: SPR (Biacore 8K), antibody captured via anti-human Fc
One number for each entry, as −log10 of the molar value.

Consider the following illustrative entries.
INSERT INTO measurements (binder, meas_value) VALUES
  ('hAb001-24 (antibody, V domains shown, Humanized; constant regions not specified) VH: QVQLVQSGAEVKKPGASVKVSCKASGYSFTNYYMHWVRQAPGQRLEWIGWTYPGNNNIKYNEKFKGRVTITADTSASTAYMELSSLRSEDTAVYYCARDGYGYYFFDYWGQGTLVTVSS VL: DIVMTQSPDSLAVSLGERATMSCKSSQSLLNNRTRKNYLAWYQQKPGQPPKLLIYWASTRESGVPDRFTGSGSGTDFTLTISSLQAEDVAVYYCKQSYTLRTFGGGTKLEIK', 7.78),
  ('hAb001-22 (antibody, V domains shown, Humanized; constant regions not specified) VH: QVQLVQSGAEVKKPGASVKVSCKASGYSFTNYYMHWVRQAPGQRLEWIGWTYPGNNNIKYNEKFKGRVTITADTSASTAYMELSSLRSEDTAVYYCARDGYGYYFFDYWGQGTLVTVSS VL: DIVMTQSPDSLAVSLGERATINCKSSQSLLNNRTRKNYLAWYQQKPGQPPKLLIYWASTRESGVPDRFTGSGSGTDFTLTISSLQAEDVAVYYCKQSYTLRTFGGGTKLEIK', 7.69),
  ('hAb001-21 (antibody, V domains shown, Humanized; constant regions not specified) VH: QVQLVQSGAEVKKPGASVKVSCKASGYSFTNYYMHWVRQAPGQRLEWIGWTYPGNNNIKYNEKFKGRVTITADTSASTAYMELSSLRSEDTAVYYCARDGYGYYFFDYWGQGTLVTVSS VL: DIVMTQSPDSLAVSLGERATINCKSSQSLLNNRTRKNYLAWYQQKPGQPPKLLIYWASTRESGVPDRFSGSGSGTDFTLTISSLQAEDVAVYYCKQSYTLRTFGGGTKLEIK', 7.77),
  ('hAb001-30 (antibody, V domains shown, Humanized; constant regions not specified) VH: QVQLVQSGAEVKKPGASVKVSCKASGYSFTNYYMHWVKQAPGQRLEWIGWTYPGNNNIKYNEKFKGRATITADTSASTAYMELSSLRSEDTAVYYCARDGYGYYFFDYWGQGTLVTVSS VL: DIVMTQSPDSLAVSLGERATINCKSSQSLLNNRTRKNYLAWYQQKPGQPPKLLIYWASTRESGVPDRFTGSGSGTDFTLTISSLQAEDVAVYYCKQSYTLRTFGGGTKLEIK', 7.59),
  ('hAb008-18 (antibody, V domains shown, Humanized; constant regions not specified) VH: QVQLVQSGAEVKKPGASVKVSCKASGYTFTDYTVNWVRQAPGQRLEWMGYINPFNSYTKYNQKFKDRVTITRDTSASTAYMELSSLRSEDTAVYYCARSVSTYWGQGTTVTVSS VL: DVVMTQSPLSLPVTLGQPASISCKSSQSLLDSDGKTYLNWLQQRPGQSPRRLIQLVSKLNSGVPDRFSGSGSGTDFTLKISRVEAEDVGVFYCWQGTHFPRTFGGGTKLEIK', 7.47);

For every listed record, write down its pKd.
1. hAb007-31 (antibody, V domains shown, Humanized; constant regions not specified) VH: QVQLVQSGAEVKKPGASVKVSCKASGSTFTDNYIHWVKQAPGQRLEWIGWIYPGSVNIKYNEKFKDRATITADTSATTAYMELSSLRSEDTAVYYCARDISRYYFDYWGQGTTVTVSS VL: DIVMTQSPDSLAVSLGERATMNCKSSQSLLNSRTRKNYLAWYQQKPGQPPKLLIYWASTRESGVPDRFSGSGSGTDFTLTISSLQAEDVAVYYCKQSFILRTFGGGTKLEIK
2. hAb001-20 (antibody, V domains shown, Humanized; constant regions not specified) VH: QVQLVQSGAEVKKPGASVKVSCKASGYSFTNYYMHWVRQAPGQRLEWMGWTYPGNNNIKYNEKFKGRVTITRDTSASTAYMELSSLRSEDTAVYYCARDGYGYYFFDYWGQGTLVTVSS VL: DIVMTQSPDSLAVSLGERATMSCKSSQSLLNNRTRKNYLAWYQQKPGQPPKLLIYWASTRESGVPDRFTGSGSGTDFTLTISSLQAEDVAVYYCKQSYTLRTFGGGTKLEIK
3. hAb008-19 (antibody, V domains shown, Humanized; constant regions not specified) VH: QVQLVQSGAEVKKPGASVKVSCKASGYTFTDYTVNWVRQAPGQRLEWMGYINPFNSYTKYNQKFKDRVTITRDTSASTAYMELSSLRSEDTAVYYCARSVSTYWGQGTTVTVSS VL: DVVMTQSPLSLPVTLGQPASISCKSSQSLLDSDGKTYLNWLLQRPGQSPRRLIQLVSKLNSGVPDRFSGSGSGTDFTLKISRVEAEDVGVFYCWQGTHFPRTFGGGTKLEIK
4. hAb007-18 (antibody, V domains shown, Humanized; constant regions not specified) VH: QVQLVQSGAEVKKPGASVKVSCKASGSTFTDNYIHWVRQAPGQRLEWMGWIYPGSVNIKYNEKFKDRVTITRDTSASTAYMELSSLRSEDTAVYYCARDISRYYFDYWGQGTTVTVSS VL: DIVMTQSPDSLAVSLGERATINCKSSQSLLNSRTRKNYLAWYQQKPGQPPKLLIYWASTRESGVPDRFTGSGSGTDFTLTISSLQAEDVAVYYCKQSFILRTFGGGTKLEIK
5. hAb007-30 (antibody, V domains shown, Humanized; constant regions not specified) VH: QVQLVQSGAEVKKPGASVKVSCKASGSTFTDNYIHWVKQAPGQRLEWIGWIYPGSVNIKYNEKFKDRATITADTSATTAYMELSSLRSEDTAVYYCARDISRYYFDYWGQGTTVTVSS VL: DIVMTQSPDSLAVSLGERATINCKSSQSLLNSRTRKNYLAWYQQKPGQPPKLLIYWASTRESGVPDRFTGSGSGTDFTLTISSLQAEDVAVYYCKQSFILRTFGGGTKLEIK

1: 8.28; 2: 7.97; 3: 7.58; 4: 8.22; 5: 8.15
